target-under-test: human adenosine A2A receptor (Homo sapiens, UniProt P29274)
Construct: expressed in transfected cells; host or cells: CHO-K1 cells with a cAMP inducible beta-galactosidase reporter gene
Sequence (P29274 whole entry): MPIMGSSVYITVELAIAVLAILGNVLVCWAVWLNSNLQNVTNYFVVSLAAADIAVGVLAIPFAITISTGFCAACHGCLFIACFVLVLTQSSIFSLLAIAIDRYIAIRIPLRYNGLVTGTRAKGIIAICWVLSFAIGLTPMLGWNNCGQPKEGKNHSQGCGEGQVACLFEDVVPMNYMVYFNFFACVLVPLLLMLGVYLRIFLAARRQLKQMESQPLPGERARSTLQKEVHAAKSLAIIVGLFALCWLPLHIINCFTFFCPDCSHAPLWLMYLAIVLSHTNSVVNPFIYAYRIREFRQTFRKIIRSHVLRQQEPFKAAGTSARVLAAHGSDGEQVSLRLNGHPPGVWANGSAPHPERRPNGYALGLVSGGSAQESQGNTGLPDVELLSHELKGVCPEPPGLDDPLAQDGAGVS
assay-protocol: Adenosine A2A Receptor Functional Assay (A2AGAL2)
Type: cell-based
condition-info: ratio of A1Gal2 to A2AGal2 value
property-measured: A1/A2A

- compound: "Nc1nc(-c2ccc(F)cc2)c2c(n1)-c1c(cccc1-c1ccc(N3CCN(Cc4ccccc4)CC3)cc1)C2=O [Example 4]"
  reported: 310
- compound: "Nc1nc(-c2ccc(F)cc2)c2c(n1)-c1c(cccc1-c1ccc(N3CCN(CCC(F)(F)F)CC3)cc1)C2=O [Example 1]"
  reported: 3055.56
- compound: "CC(C)CCN1CCN(c2ccc(-c3cccc4c3-c3nc(N)nc(-c5ccc(F)cc5)c3C4=O)cc2)CC1 [Example 11]"
  reported: 100
- compound: "CCCN1CCN(c2ccc(-c3cccc4c3-c3nc(N)nc(-c5ccc(F)cc5)c3C4=O)cc2)CC1 [Example 15]"
  reported: 59.7701
- compound: "COCCN1CCN(c2ccc(-c3cccc4c3-c3nc(N)nc(-c5ccc(F)cc5)c3C4=O)cc2)CC1 [Example 8]"
  reported: 127.778
- compound: "CC(C)N1CCN(c2ccc(-c3cccc4c3-c3nc(N)nc(-c5ccc(F)cc5)c3C4=O)cc2)CC1 [Example 9]"
  reported: 112.5
- compound: "Nc1nc(-c2ccc(F)cc2)c2c(n1)-c1c(cccc1-c1ccc(N3CCN(CC4CC4)CC3)cc1)C2=O [Example 7]"
  reported: 131.69

* * *

target-under-test: human adenosine A2A receptor (Homo sapiens, UniProt P29274)
assay-protocol: Adenosine A2A Receptor Functional Assay (A2AGAL2)
condition-info: CHO-K1 cells overexpressing human A2A, cAMP inducible beta-galactosidase reporter, antagonist vs 15 nM NECA challenge
Text: Adenosine A2A Receptor Functional Assay (A2AGAL2) To initiate the functional assay, cryopreserved CHO-K1 cells overexpressing the human adenosine A2A receptor and containing a cAMP inducible beta-galactosidase reporter gene were thawed, centrifuged, DMSO containing media removed, and then seeded with fresh culture media into clear 384-well tissue culture treated plates (BD #353961) at a concentration of 10K cells/well. […]
Classification field. Basis: IC50. Definitions: band A = under 7 nM, band B = from 7 nM up to 10 nM, band C = 10 nM and over

- compound: "CCCN1CCN(c2ccc(-c3cccc4c3-c3nc(N)nc(-c5ccc(F)cc5)c3C4=O)cc2)CC1 [Example 15]"
  target-under-test: "human adenosine A2A receptor (Homo sapiens, UniProt P29274)"
  classification: "band B"
- compound: "Nc1nc(-c2ccccc2)c2c(n1)-c1c(cccc1-c1ccccc1)C2=O [Example 14]"
  target-under-test: "human adenosine A2A receptor (Homo sapiens, UniProt P29274)"
  classification: "band B"
- compound: "Cc1cccc(-c2cccc3c2-c2nc(N)nc(-c4ccc(F)cc4)c2C3=O)c1 [Example 16]"
  target-under-test: "human adenosine A2A receptor (Homo sapiens, UniProt P29274)"
  classification: "band C"
- compound: "CC(C)CCN1CCN(c2ccc(-c3cccc4c3-c3nc(N)nc(-c5ccc(F)cc5)c3C4=O)cc2)CC1 [Example 11]"
  target-under-test: "human adenosine A2A receptor (Homo sapiens, UniProt P29274)"
  classification: "band C"
- compound: "COCCN1CCN(c2ccc(-c3cccc4c3-c3nc(N)nc(-c5ccc(F)cc5)c3C4=O)cc2)CC1 [Example 8]"
  target-under-test: "human adenosine A2A receptor (Homo sapiens, UniProt P29274)"
  classification: "band A"
- compound: "Nc1nc(-c2ccc(F)cc2)c2c(n1)-c1c(cccc1-c1ccc(N3CCN(CCC(F)(F)F)CC3)cc1)C2=O [Example 1]"
  target-under-test: "human adenosine A2A receptor (Homo sapiens, UniProt P29274)"
  classification: "band A"
- compound: "N#Cc1ccc(-c2cccc3c2-c2nc(N)nc(-c4ccc(F)cc4)c2C3=O)cc1 [Example 10]"
  target-under-test: "human adenosine A2A receptor (Homo sapiens, UniProt P29274)"
  classification: "band A"
- compound: "Nc1nc(-c2ccc(F)cc2)c2c(n1)-c1c(cccc1-c1ccc(N3CCN(CC4CC4)CC3)cc1)C2=O [Example 7]"
  target-under-test: "human adenosine A2A receptor (Homo sapiens, UniProt P29274)"
  classification: "band B"
- compound: "Nc1nc(-c2ccc(F)cc2)c2c(n1)-c1c(cccc1-c1ccc(OCCN3CCOCC3)cc1)C2=O [Example 13]"
  target-under-test: "human adenosine A2A receptor (Homo sapiens, UniProt P29274)"
  classification: "band A"
- compound: "Nc1nc(-c2ccc(F)cc2)c2c(n1)-c1c(cccc1-c1cccc(F)c1)C2=O [Example 3]"
  target-under-test: "human adenosine A2A receptor (Homo sapiens, UniProt P29274)"
  classification: "band C"
- compound: "CC(C)N1CCN(c2ccc(-c3cccc4c3-c3nc(N)nc(-c5ccc(F)cc5)c3C4=O)cc2)CC1 [Example 9]"
  target-under-test: "human adenosine A2A receptor (Homo sapiens, UniProt P29274)"
  classification: "band C"
- compound: "COc1ccc(-c2cccc3c2-c2nc(N)nc(-c4ccccc4)c2C3=O)cc1 [Example 17]"
  target-under-test: "human adenosine A2A receptor (Homo sapiens, UniProt P29274)"
  classification: "band A"
- compound: "CCC(CC)N1CCN(c2ccc(-c3cccc4c3-c3nc(N)nc(-c5ccc(F)cc5)c3C4=O)cc2)CC1 [Example 5]"
  target-under-test: "human adenosine A2A receptor (Homo sapiens, UniProt P29274)"
  classification: "band C"

Values compiled from patent US20110105492A1.
